Data origin, for the record: paper PMC12669278

Target: purified VDAC1 (Homo sapiens)
Sequence (P21796 whole entry, species assumed): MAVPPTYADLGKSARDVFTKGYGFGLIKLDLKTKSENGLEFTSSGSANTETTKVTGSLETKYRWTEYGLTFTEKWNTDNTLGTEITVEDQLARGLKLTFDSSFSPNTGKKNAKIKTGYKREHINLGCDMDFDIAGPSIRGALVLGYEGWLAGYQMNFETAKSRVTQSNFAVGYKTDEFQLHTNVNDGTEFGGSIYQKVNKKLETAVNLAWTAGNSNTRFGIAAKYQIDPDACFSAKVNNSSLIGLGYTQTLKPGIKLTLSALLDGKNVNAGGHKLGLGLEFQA
Assay: Glass-bound peptide array probed with purified VDAC1 and anti-VDAC1 antibodies
Type: binding
Set-up: key: +: low; ++: medium; +++: high
Details: glass-bound peptide array incubated 4 h with purified VDAC1 (64 nM); antibody against VDAC1 N-terminus; chemiluminescence
property name: Spot intensity, detected using anti-N-terminus VDAC1

Recorded Spot intensity, detected using anti-N-terminus VDAC1, per entry:
Inquiry: Hello, please tell me recorded Spot intensity, detected using anti-N-terminus VDAC1 for this one: KLQMGKKLPLHLTLPQALPQYAGSG [1N5, array peptide from CD4]
Reply text: ++

Inquiry: Tell me measured Spot intensity, detected using anti-N-terminus VDAC1 for IKKKEERADLIAYLKKATNE [1D16, array peptide from cytochrome c] please.
Reply text: ++

Inquiry: Provide Spot intensity, detected using anti-N-terminus VDAC1 value for the following sequence: MEVIRQVKGDLAFLNFQNNLQQTPL [2F6]
Reply text: +

Inquiry: Return the recorded Spot intensity, detected using anti-N-terminus VDAC1 value; entry: DQGGWGLPLAESLKRLMSLSPGRPP [1B13, array peptide from BAX]
Reply text: +++

***
Inquiry: Report Spot intensity, detected using anti-N-terminus VDAC1, nothing else, for this sequence: KTGPNLHGLFGRKTGQAPGYSYTAA [1D9, array peptide from cytochrome c]
Reply text: +

Inquiry: Return Spot intensity, detected using anti-N-terminus VDAC1 (reported value) for this sequence: PLAESITDVLVRTKRDWLVKQRGWD [2E12, array peptide from Mcl-1]
Reply text: ++

Inquiry: In one line, give reported Spot intensity, detected using anti-N-terminus VDAC1 of the entry VSSITASLRFDGALNVDLTEFQTNL [2A14, array peptide from tubulin alpha 1b] .
Reply text: +

Inquiry: State its Spot intensity, detected using anti-N-terminus VDAC1: MTEQAISFAKDFLAGGIAAAISKTA [1F12, array peptide from ANT3]
Reply text: +

Inquiry: # return recorded Spot intensity, detected using anti-N-terminus VDAC1 for entry SPPSTLTPDSRRVARPPPIGAEVPD [2D11, array peptide from Mcl-1]
Reply text: +

Inquiry: Please supply the value of reported Spot intensity, detected using anti-N-terminus VDAC1 for the item NMKLTRAQFEGIVTDLIRRTIAPCQ [2O9, array peptide from HSP-70]
Reply text: +

Inquiry: Identify the reported Spot intensity, detected using anti-N-terminus VDAC1 for the following entry. TVPTPHLDGKHVVFGQVIKGIGVAR [1I7, array peptide from cyclophilin D]
Reply text: +

Inquiry: Report Spot intensity, detected using anti-N-terminus VDAC1, nothing else, for this sequence: ITATQKTVDGPSGKLWRDGRGALQN [2C10, array peptide from GAPDH1]
Reply text: +

Inquiry: Quickly give me recorded Spot intensity, detected using anti-N-terminus VDAC1 for AVDTDSPREVFFRVAADMFSDGNFN [1B5, array peptide from BAX]
Reply text: +++

Inquiry: Give the value of Spot intensity, detected using anti-N-terminus VDAC1 reported for the following: AIYDICRRNLDIERPTYTNLNRLIS [2A11, array peptide from tubulin alpha 1b]
Reply text: +++

Inquiry: Check the records and state Spot intensity, detected using anti-N-terminus VDAC1 for GNLANVIRYFPTQALNFAFKDKYKQ [1F20, array peptide from ANT3]
Reply text: +++

Inquiry: In one line, give reported Spot intensity, detected using anti-N-terminus VDAC1 of the entry SVKRVTQDPKLQMGKKLPLHLTLPQ [1N4, array peptide from CD4] .
Reply text: ++

Inquiry: Using the record for TPVQSRVVQGKEPAHLMSLFGGKPM [2I12, array peptide from gelsolin isoform b] , state its measured Spot intensity, detected using anti-N-terminus VDAC1.
Reply text: +

Inquiry: Give me measured Spot intensity, detected using anti-N-terminus VDAC1, please, for this sequence: MVVEHPEFLKAGKEPGLQIWRVEKF [2G8, array peptide from gelsolin isoform b]
Reply text: +++
